The entries below come with measured LD10 values attached.
test system: mouse; test: Acute toxicity, testing in the mouse; assay type: in vivo; conditions: in rape oil, intraperitoneal administration, 10 days

compound	tested_on	LD10
CC1=C(/C=C/C(C)=C/C=C/C(C)=C/C(=O)NCCO)C(C)(C)CCC1 [Vitamin A acid ethanol amide, vitamin A acid ethanol amide]	mouse	710 mg/kg
CCN(CC)C(=O)/C=C(C)/C=C/C=C(C)/C=C/C1=C(C)CCCC1(C)C [Vitamin A acid diethyl amide, vitamin A acid diethyl amide]	mouse	> 4000 mg/kg
CC1=C(/C=C/C(C)=C/C=C/C(C)=C/C(=O)NC(C)C)C(C)(C)CCC1 [vitamin A acid isopropyl amide]	mouse	> 4000 mg/kg
CNC(=O)/C=C(C)/C=C/C=C(C)/C=C/C1=C(C)CCCC1(C)C [vitamin A acid methyl amide]	mouse	> 4000 mg/kg
CC1=C(/C=C/C(C)=C/C=C/C(C)=C/C(=O)Nc2ccccc2)C(C)(C)CCC1 [vitamin A acid phenyl amide]	mouse	> 4000 mg/kg

Attention now turns to another entry.
Query: Can you look up the measured LD10 of CCCCNC(=O)/C=C(C)/C=C/C=C(C)/C=C/C1=C(C)CCCC1(C)C [vitamin A acid n-butyl amide] for me?
Result: > 4000 mg/kg
